What IC50 was measured for each of the following?

Problem: Look up IC50 with Prostaglandin G/H synthase 2 (Ovis aries, UniProt P79208) for this compound: CS(=O)(=O)c1ccc(C2=C(c3ccc(F)cc3)C(=O)OC2)cc1
Result: 9.2 µM

Problem: Look up IC50 with Prostaglandin G/H synthase 2 (Ovis aries, UniProt P79208) for this compound: CS(=O)(=O)c1ccc(C2=C(c3ccccc3Cl)C(=O)O/C2=C\c2cccc([N+](=O)[O-])c2)cc1
Result: 7.1 µM

Problem: Look up IC50 with Prostaglandin G/H synthase 2 (Ovis aries, UniProt P79208) for this compound: COc1cc(/C=C2\OC(=O)C(c3ccc(F)cc3)=C2c2ccc(S(C)(=O)=O)cc2)ccc1O
Result: 17.6 µM

Problem: Look up IC50 with Prostaglandin G/H synthase 2 (Ovis aries, UniProt P79208) for this compound: COc1ccccc1/C=C1\OC(=O)C(c2ccccc2)=C1c1ccc(S(C)(=O)=O)cc1
Result: 3 µM

Problem: Look up IC50 with Prostaglandin G/H synthase 2 (Ovis aries, UniProt P79208) for this compound: COC1(C)OC(=O)C(c2ccccc2Cl)=C1c1ccc(S(C)(=O)=O)cc1 (stereo not given)
Result: 12.1 µM

---

# tgt: Prostaglandin G/H synthase 2 (Ovis aries) (UniProt P79208)
# experiment: Inhibition of ovine COX-2 assessed as using arachidonic acid as substrate at 10 uM preincubated for 5 mins prior to substrate addition measured after 2 hrs by enzyme immunoassay relative to control
# measurement-context: in the assay text read “after 2 mins” for “after 2 hrs”
Calls of active or inactive are those of the source. The calls are words filed in the database; no cut-off is given here.
observed-property: inhibition

Sample records with inhibition:
COc1cc(/C=C2\OC(=O)C(c3ccccc3)=C2c2ccc(S(C)(=O)=O)cc2)ccc1O; 36.6%
CS(=O)(=O)c1ccc(C2=C(c3ccc(F)cc3)C(=O)O/C2=C\c2cccc([N+](=O)[O-])c2)cc1; inactive
CS(=O)(=O)c1ccc(C2=C(c3ccc(F)cc3)C(=O)OC2)cc1; 66.9%
CN(C)c1ccc(/C=C2\OC(=O)C(c3ccccc3Cl)=C2c2ccc(S(C)(=O)=O)cc2)cc1; 4.49%
CS(=O)(=O)c1ccc(C2=C(c3ccccc3)C(=O)O/C2=C\c2cccc([N+](=O)[O-])c2)cc1; inactive
COc1cc(/C=C2\OC(=O)C(c3ccc(F)cc3)=C2c2ccc(S(C)(=O)=O)cc2)ccc1O; 43.6%

Switching to the query record.
Problem: Look up inhibition with Prostaglandin G/H synthase 2 (Ovis aries) (UniProt P79208) for this compound: COc1ccc(/C=C2\OC(=O)C(c3ccccc3Cl)=C2c2ccc(S(C)(=O)=O)cc2)cc1
Result: inactive

---

# tgt: Prostaglandin G/H synthase 1 (Ovis aries)
# experiment: Inhibition of ovine COX-1 assessed as using arachidonic acid as substrate at 10 uM preincubated for 5 mins prior to substrate addition […] by enzyme immunoassay relative to control
Activity calls are given as the source filed them. The rule behind the calls is not given here.
observed-property: inhibition

Sample records with inhibition:
CS(=O)(=O)c1ccc(C2=C(c3ccccc3)C(=O)O/C2=C\c2cccc([N+](=O)[O-])c2)cc1; inactive
CC(C)=C1OC(=O)C(c2ccccc2Cl)=C1c1ccc(S(C)(=O)=O)cc1; 18.6%
COc1ccccc1/C=C1\OC(=O)C(c2ccccc2Cl)=C1c1ccc(S(C)(=O)=O)cc1; inactive
COc1ccccc1/C=C1\OC(=O)C(c2ccccc2)=C1c1ccc(S(C)(=O)=O)cc1; 71%
CS(=O)(=O)c1ccc(C2=C(c3ccccc3Cl)C(=O)O/C2=C\c2ccc(Cl)cc2)cc1; inactive
CS(=O)(=O)c1ccc(C2=C(c3ccccc3Cl)C(=O)OC2)cc1; inactive

Problem: Look up inhibition with Prostaglandin G/H synthase 1 (Ovis aries) for this molecule: COc1ccccc1/C=C1\OC(=O)C(c2ccc(F)cc2)=C1c1ccc(S(C)(=O)=O)cc1
Result: inactive

---

# tgt: Prostaglandin G/H synthase 2 (Ovis aries)
# experiment: Inhibition of ovine COX-2 assessed as using arachidonic acid as substrate at 10 uM preincubated for 5 mins prior to substrate addition measured after 2 mins by enzyme immunoassay relative to control
What inhibition was measured for each of the following?
Please make sure the unit comes right after the number.

Problem: So what does the record say about inhibition for CC(C)=C1OC(=O)C(c2ccccc2Cl)=C1c1ccc(S(C)(=O)=O)cc1 ?
Result: 24.1%

Problem: So what does the record say about inhibition for CS(=O)(=O)c1ccc(C2=C(c3ccccc3Cl)C(=O)O/C2=C\c2ccc(O)cc2)cc1 ?
Result: 2.27%

Problem: So what does the record say about inhibition for CS(=O)(=O)c1ccc(C2=C(c3ccccc3)C(=O)O/C2=C\c2ccc3c(c2)OCO3)cc1 ?
Result: 24.6%

Problem: So what does the record say about inhibition for CS(=O)(=O)c1ccc(C2=C(c3ccccc3Cl)C(=O)O/C2=C\c2ccc(Cl)cc2)cc1 ?
Result: 32.7%

Problem: So what does the record say about inhibition for COC1(C)OC(=O)C(c2ccc(F)cc2)=C1c1ccc(S(C)(=O)=O)cc1 (centres undefined) ?
Result: 32.4%

Problem: So what does the record say about inhibition for COc1ccccc1/C=C1\OC(=O)C(c2ccccc2)=C1c1ccc(S(C)(=O)=O)cc1 ?
Result: 72.6%

Problem: So what does the record say about inhibition for CS(=O)(=O)c1ccc(C2=C(c3ccccc3Cl)C(=O)O/C2=C\c2cccc([N+](=O)[O-])c2)cc1 ?
Result: 59.2%

Problem: So what does the record say about inhibition for COc1cc(/C=C2\OC(=O)C(c3ccc(F)cc3)=C2c2ccc(S(C)(=O)=O)cc2)cc(OC)c1OC ?
Result: 20.8%

Problem: So what does the record say about inhibition for COc1ccccc1/C=C1\OC(=O)C(c2ccccc2Cl)=C1c1ccc(S(C)(=O)=O)cc1 ?
Result: 44.2%

---

# tgt: Prostaglandin G/H synthase 2 (Ovis aries) (UniProt P79208)
# Sequence (whole entry): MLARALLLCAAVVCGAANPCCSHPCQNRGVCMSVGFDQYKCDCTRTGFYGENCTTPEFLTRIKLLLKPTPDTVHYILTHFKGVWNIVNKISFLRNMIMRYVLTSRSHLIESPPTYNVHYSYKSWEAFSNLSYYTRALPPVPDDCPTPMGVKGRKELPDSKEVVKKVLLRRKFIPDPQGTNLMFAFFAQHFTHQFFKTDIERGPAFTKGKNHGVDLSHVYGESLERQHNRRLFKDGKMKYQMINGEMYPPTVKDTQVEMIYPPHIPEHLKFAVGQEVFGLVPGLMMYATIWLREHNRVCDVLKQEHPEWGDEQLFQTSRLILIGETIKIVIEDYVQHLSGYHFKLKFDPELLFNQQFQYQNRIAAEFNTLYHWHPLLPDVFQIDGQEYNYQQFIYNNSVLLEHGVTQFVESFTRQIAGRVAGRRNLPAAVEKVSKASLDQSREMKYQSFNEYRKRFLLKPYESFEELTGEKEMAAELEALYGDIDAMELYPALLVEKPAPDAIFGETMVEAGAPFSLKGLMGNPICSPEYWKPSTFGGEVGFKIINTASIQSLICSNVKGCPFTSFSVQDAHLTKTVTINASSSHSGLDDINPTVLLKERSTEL
# experiment: Inhibition of ovine COX-2 assessed as using arachidonic acid as substrate at 10 uM preincubated for 5 mins prior to substrate addition measured after 2 hrs by enzyme immunoassay relative to control
# measurement-context: in the assay text read “after 2 mins” for “after 2 hrs”
Active and inactive are the calls of the source. No cut-off for these calls is given here.
observed-property: inhibition

Sample records with inhibition:
COC1(C)OC(=O)C(c2ccccc2Cl)=C1c1ccc(S(C)(=O)=O)cc1 (stereo not given); 43.3%
COc1ccc(/C=C2\OC(=O)C(c3ccccc3)=C2c2ccc(S(C)(=O)=O)cc2)cc1; 16.7%
CS(=O)(=O)c1ccc(C2=C(c3ccccc3)C(=O)O/C2=C\c2ccc(Cl)cc2)cc1; inactive
CS(=O)(=O)c1ccc(C2=C(c3ccccc3)C(=O)O/C2=C\c2ccco2)cc1; inactive

Switching to the query record.
Problem: So what does the record say about inhibition for CN(C)c1ccc(/C=C2\OC(=O)C(c3ccc(F)cc3)=C2c2ccc(S(C)(=O)=O)cc2)cc1 ?
Result: inactive

---

# Tested on: PC-3
# experiment: Antiproliferative activity against human PC3 cells expressing PCDNA after 72 hrs by MTT assay
# Format: functional, cell-based
# measurement-context: PC-3, 72 h
What IC50 was measured for each of the following?

Problem: So what does the record say about IC50 for CN(C)c1ccc(/C=C2\OC(=O)C(c3ccccc3Cl)=C2c2ccc(S(C)(=O)=O)cc2)cc1 ?
Result: > 50 µM

Problem: So what does the record say about IC50 for CS(=O)(=O)c1ccc(C2=C(c3ccccc3)C(=O)O/C2=C\c2ccccc2)cc1 ?
Result: > 90 µM

Problem: So what does the record say about IC50 for CC(C)=CCC/C(C)=C\C=C1/OC(=O)C(c2ccccc2)=C1c1ccc(S(C)(=O)=O)cc1 ?
Result: > 50 µM

Problem: So what does the record say about IC50 for CS(=O)(=O)c1ccc(C2=C(c3ccc(F)cc3)C(=O)O/C2=C\c2ccc(Cl)cc2)cc1 ?
Result: > 50 µM

Problem: So what does the record say about IC50 for COc1cc(/C=C2\OC(=O)C(c3ccccc3)=C2c2ccc(S(C)(=O)=O)cc2)cc(OC)c1OC ?
Result: > 90 µM

Problem: So what does the record say about IC50 for CS(=O)(=O)c1ccc(C2=C(c3ccccc3Cl)C(=O)O/C2=C\c2ccc(Cl)cc2)cc1 ?
Result: > 50 µM

Problem: So what does the record say about IC50 for CC(C)=C1OC(=O)C(c2ccc(F)cc2)=C1c1ccc(S(C)(=O)=O)cc1 ?
Result: > 50 µM

Problem: So what does the record say about IC50 for CS(=O)(=O)c1ccc(C2=C(c3ccccc3)C(=O)O/C2=C\c2ccc(O)cc2)cc1 ?
Result: 25.9 µM
